Molecular target: control:Baker_PD-L1, Q9NZQ7
Sequence (Q9NZQ7 whole entry): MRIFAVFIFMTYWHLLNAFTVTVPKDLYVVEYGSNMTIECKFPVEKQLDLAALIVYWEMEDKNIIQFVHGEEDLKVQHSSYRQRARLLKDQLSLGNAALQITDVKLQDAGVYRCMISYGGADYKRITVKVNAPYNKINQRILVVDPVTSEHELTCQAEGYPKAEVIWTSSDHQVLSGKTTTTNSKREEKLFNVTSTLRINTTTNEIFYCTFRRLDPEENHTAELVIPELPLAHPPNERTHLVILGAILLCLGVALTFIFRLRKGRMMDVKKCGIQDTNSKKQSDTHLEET

{"BINDER": "Pdl1_binder_AF2_91 (protein) DEKFKKIKKMAKVFSESTGKEIEVEKKGDEFIITAKDADEATYQAAKLLKARAEDLGVKARFKEA", "binding in a display sort": "not found (inactive)"}
{"BINDER": "Pdl1_binder_AF2_52 (protein) IKEKIEELEKKAEEEVEEAKKLDKEEANKKLNKLSTEIYIEAIQVNDEEFRKKAVEILTKIAKESKELGLEEAEKAASSFAEELKEKL", "binding in a display sort": "not found (inactive)"}
